Origin of measurements: patent US20170306031A1

Catalogue of IC50, ELK1-luciferase reporter (hGFRAL/hRET) values
Biological target: T1, human GFRAL expressed on cells (human, UniProt Q6UXV0 20-394)
T1 sequence: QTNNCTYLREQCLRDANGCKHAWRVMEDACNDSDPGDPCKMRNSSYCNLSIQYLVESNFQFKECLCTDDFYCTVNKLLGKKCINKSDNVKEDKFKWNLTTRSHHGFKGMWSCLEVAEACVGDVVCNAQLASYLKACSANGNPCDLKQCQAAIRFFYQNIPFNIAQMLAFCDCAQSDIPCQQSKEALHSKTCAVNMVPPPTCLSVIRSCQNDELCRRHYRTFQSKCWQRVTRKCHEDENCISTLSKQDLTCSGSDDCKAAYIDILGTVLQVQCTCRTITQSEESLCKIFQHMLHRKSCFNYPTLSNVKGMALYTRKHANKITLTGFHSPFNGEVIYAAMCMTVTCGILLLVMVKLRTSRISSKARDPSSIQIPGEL
Experiment: cell-based or functional assay
# unit: nM | format: bare number

Per the record, antibody designated 6G9 (antibody, V domains shown, mouse hybridoma monoclonal) VH: QVQLHQPGAELVKPGASVKLSCKTSGYTFTSYWMQWVKQRPGQGLEWIGEIDPSDSYTNYNQKFKGKATLTVDTSSTTAYMQLSSLTSEDSAVYYCARPLDRSAYYFDYWGQGTTLTVSS VL: DIVLTQSPASLAVSLGQRATISCRASESVDFSGNSFMHWYQQKPGQPPKLLIYRASNLDSGIPARFSGVGSRTDFTLTINPVEADDVATYYCQQSNEDPYTFGGGTKLEIE has IC50, ELK1-luciferase reporter (hGFRAL/hRET) of 2.65

Moving on to the next binder.
Per the record, antibody designated 2B3 (antibody, V domains shown) VH: EVKLVESGGGLVQPGGSLKLSCAASGFTFSDYFMFWVRQTPEKRLEWVAYISNDGDSTYYPDTVQGRFTISRDNAKNTLYLQMSRLRSEDTAMYYCTRQGAQATLDYWGQGTTLTVSS VL: QIVLTQSPAIMSASLGEEITLTCSASSSVFYMHWYQQKSGTSPKLLIYSTSNLASGIPSRFSGSGSGTFYSLTISSVEAEDAADYYCHQWSSTFGGGTKLEIK has IC50, ELK1-luciferase reporter (hGFRAL/hRET) of 7.12
